Below, each entry is listed with its recorded GI50.
- test.description: Cytotoxicity against human HL-60 cells by resazurin dye based fluorescence assay
- Type: cell-based
Supply the numeric figure in µM, leaving out any unit text.

Recorded GI50, per entry:
molecular.string	unit	observed.result
CC[C@@H](C(=O)[C@@H](C)[C@@H](O)[C@H](C)[C@@H]1O[C@@H]([C@@H](CC)C(=O)O)CC[C@@H]1C)[C@H]1O[C@]2(C=C[C@H](OC(=O)C34CC5CC(CC(C5)C3)C4)[C@]3(CC[C@@](C)([C@H]4CC[C@](O)(CC)[C@H](C)O4)O3)O2)[C@H](C)C[C@@H]1C	µM	18.7
CCOC(=O)O[C@H]1C=C[C@]2(O[C@H]([C@@H](CC)C(=O)[C@@H](C)[C@@H](O)[C@H](C)[C@@H]3O[C@@H]([C@@H](CC)C(=O)O)CC[C@@H]3C)[C@@H](C)C[C@H]2C)O[C@@]12CC[C@@](C)([C@H]1CC[C@](O)(CC)[C@H](C)O1)O2	µM	12.6
CC[C@@H](C(=O)[C@@H](C)[C@@H](O)[C@H](C)[C@@H]1O[C@@H]([C@@H](CC)C(=O)O)CC[C@@H]1C)[C@H]1O[C@]2(C=C[C@H](OC(=O)c3ccccc3)[C@]3(CC[C@@](C)([C@H]4CC[C@](O)(CC)[C@H](C)O4)O3)O2)[C@H](C)C[C@@H]1C	µM	13.5
CC[C@@H](C(=O)[C@@H](C)[C@@H](O)[C@H](C)[C@@H]1O[C@@H]([C@@H](CC)C(=O)O)CC[C@@H]1C)[C@H]1O[C@]2(C=C[C@H](OC(=O)Oc3ccccc3)[C@]3(CC[C@@](C)([C@H]4CC[C@](O)(CC)[C@H](C)O4)O3)O2)[C@H](C)C[C@@H]1C	µM	23.4

Quick one: GI50 for C#CCNC(=O)[C@H](CC)[C@H]1CC[C@H](C)[C@H]([C@@H](C)[C@H](O)[C@H](C)C(=O)[C@H](CC)[C@H]2O[C@]3(C=C[C@H](OC(C)=O)[C@]4(CC[C@@](C)([C@H]5CC[C@](O)(CC)[C@H](C)O5)O4)O3)[C@H](C)C[C@@H]2C)O1 ? 39.8

Quick one: CCNC(=O)N(CC)C(=O)O[C@H]1C=C[C@]2(O[C@H]([C@@H](CC)C(=O)[C@@H](C)[C@@H](O)[C@H](C)[C@@H]3O[C@@H]([C@@H](CC)C(=O)O)CC[C@@H]3C)[C@@H](C)C[C@H]2C)O[C@@]12CC[C@@](C)([C@H]1CC[C@](O)(CC)[C@H](C)O1)O2 9.54

Source of measurements: ChEMBL document CHEMBL4732069
